# study system: Focal adhesion kinase 1 (Homo sapiens)
# experiment description: small-molecule microarray binders of FAK, primary screen, biochemical, 635/667 nm fluorescence, BSA, DTT (AID 1130);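 further: composite of spot emission at 667 nm and signal to noise over triplicate slides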
# condition: PTK2 binding, 635 nm fluorescence, higher = more signal
Label criterion not met if composite z-score falls below 0.3; label criterion met in every other case.

For orientation, consider the following solved cases.
compound	label
CC(C)[Si](C#CCCCC#N)(O[C@H](c1ccccc1)c1cn([C@H](C)c2ccccc2)nn1)C(C)C	criterion not met
O=C1O[C@H](c2ccccc2)[C@H](c2ccccc2)N2[C@H]1[C@@H](C(=O)NC[C@H](O)c1ccccc1)[C@]1(C(=O)Nc3ccc(C#CCCO)cc31)[C@H]2c1ccccc1OCCO	criterion met
CC(C)C[C@@H]1NC(=O)[C@@H]2C[C@H](C(=O)O)[C@H](c3ccc(O)cc3)N2C1=O	criterion met
NC(=O)NCC#Cc1ccc2c(c1)[C@]1(C(=O)N2)[C@H](C(=O)Nc2nc3ccccc3s2)[C@H]2C(=O)O[C@H](c3ccccc3)[C@H](c3ccccc3)N2[C@@H]1c1ccc(OCCO)cc1	criterion not met
COCCOC(=O)N1C(=O)[C@@]2(c3cc(C#CC4(O)CCCCCC4)ccc31)[C@H](C(=O)N1CCc3cc(OC)c(OC)cc3C1)[C@H]1C(=O)O[C@H](c3ccccc3)[C@H](c3ccccc3)N1[C@@H]2c1ccc(O)cc1	criterion met
[N-]=[N+]=NCc1ccccc1[C@H]1OC(c2ccc(OCCCO)cc2)=N[C@@]1(Cc1ccccc1)C(=O)N1CCOCC1	criterion met
C=CCNC(=O)[C@H]1[C@@H]2C(=O)O[C@@H](c3ccccc3)[C@@H](c3ccccc3)N2[C@@H](c2ccc(O)cc2)[C@]12C(=O)Nc1ccc(C#CC3=CCCCC3)cc12	criterion not met
CC(C)C[C@H]1NC(=O)[C@@H](C)NC(=O)[C@@]23C(=O)N[C@@H](Cc4ccccc4)C2[C@H](C)[C@@]2(C)O[C@H]2C3/C=C/C/C=C\CNC1=O (some centres undefined)	criterion met
CN(C)CCCCNC(=O)[C@H]1C[C@H]2C(=O)NCC(=O)N2[C@H]1c1cccc(OCCO)c1	criterion not met
C=C(CCCC)/C(=C/C[C@H](OC(C)=O)c1cccc(OCCO)c1)c1cc(C(=O)OC)ccc1OC	criterion not met

Exercise: Decide: is the reported value of composite z-score for COc1cc2c(cc1O)C(c1ccc(CN3CCCC3)cc1)N(Cc1cccc(OC(F)(F)F)c1)CC2 (centres undefined) equal to or greater than 0.3?
Solution: criterion not met

Exercise: Given [N-]=[N+]=NCc1ccccc1[C@@H]1OC(c2ccc(OCCCO)cc2)=N[C@]1(Cc1ccccc1)C(=O)NCc1ccccc1 , state whether its composite z-score is at least 0.3.
Solution: criterion met

Exercise: Check this compound for composite z-score at or above 0.3: COc1ccc(CCNC(=O)[C@@]2(C)c3ccccc3C(=O)N(Cc3cc(C(F)(F)F)cc(C(F)(F)F)c3)[C@H]2c2ccc(CO)cc2)cc1
Solution: criterion met

Exercise: Identify whether the reported composite z-score of the following compound is 0.3 or greater: O=C1O[C@@H](c2ccccc2)[C@@H](c2ccccc2)N2[C@@H](c3ccc(O)cc3)[C@]3(C(=O)Nc4ccc(C#CC5=CCCCC5)cc43)[C@@H](C(=O)N3CCCCCCC3)[C@H]12
Solution: criterion not met

Exercise: Test whether the compound COc1ccccc1CN1C(=O)c2ccccc2[C@](Cc2ccccc2I)(C(=O)NCCCN(C)C)[C@@H]1c1ccc(CO)cc1 records composite z-score of 0.3 or higher.
Solution: criterion met

Exercise: Item C[C@H]1C2[C@H](Cc3ccccc3)NC(=O)[C@]23C(=O)NCC(=O)N2CCC[C@H]2C(=O)NC/C=C\C/C=C/C3[C@@H]2O[C@]12C (some centres undefined) with composite z-score of 0.3 or above?
Solution: criterion not met

Exercise: # check: composite z-score of C=CC[C@]1(C(=O)N(C)C)COC(c2ccc(OCCCO)cc2)=N1 is greater than or equal to 0.3
Solution: criterion not met

Exercise: Exam item: decide whether the reported composite z-score for CC(C)CNC(=O)[C@@H]1c2ccccc2C(=O)N(CC23CC4CC(CC(C4)C2)C3)[C@H]1c1ccc(CO)cc1 is at least 0.3.
Solution: criterion not met

Exercise: Entry COCCOC(=O)N1C(=O)[C@@]2(c3cc(C#CC4=CCCCC4)ccc31)[C@H](C(=O)N1CCc3cc(OC)c(OC)cc3C1)[C@H]1C(=O)O[C@H](c3ccccc3)[C@H](c3ccccc3)N1[C@@H]2c1ccc(O)cc1 : is its composite z-score no less than 0.3?
Solution: criterion met

----------
composite z-score: recorded values
# experiment description: small-molecule microarray binders of probe aLefty2, primary screen, biochemical, biotinylated probe, 635/667 nm fluorescence (AID 1094);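 further: score merges spot fluorescence near 667 nm with spot signal-to-noise ratio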
# condition: higher = more signal
A bare number is all that is needed in reply.

// known answers, use as guide
molecule	measured number
CN(C)CCCCNC(=O)[C@H]1C[C@H]2C(=O)NCC(=O)N2[C@H]1c1cccc(OCCO)c1	-0.121
COc1ccc(C#Cc2ccc3c(c2)[C@]2(C(=O)N3)[C@H](C(=O)Nc3nc4ccccc4s3)[C@H]3C(=O)O[C@H](c4ccccc4)[C@H](c4ccccc4)N3[C@@H]2c2ccc(OCCO)cc2)cc1	-0.0412
COc1ccc([Si](C)(C)[C@H]2[C@H](CCO)O[C@@]3(C(=O)N(Cc4ccccc4)c4ccc(N(C=O)c5ccccc5)cc43)[C@@H]2C)cc1	-0.182
C=C(COC)/C(=C/C[C@H](OC(=O)c1ccncc1)c1ccc(OCCO)cc1)c1cc(C(=O)OC)ccc1OC	-0.0337
COc1cc2c(cc1O)C(c1ccc(CN3CCCC3)cc1)N(Cc1cccc(OC(F)(F)F)c1)CC2 (centres undefined)	0.045
C[N+](C)(C)CCCC[C@@H]1NC(=O)[C@H]2C[C@@H](C(=O)NCCCCCNC(=O)CS)[C@@H](c3ccc(O)cc3)N2C1=O	-0.134
CC[C@H](C)C(=O)O[C@H]1CC[C@]2(C)C3=C(CCC2C1(C)C)[C@]1(C)CC[C@H]([C@H](C)CCCC(C)C)[C@@]1(C)CC3 (some centres undefined)	-0.108
COc1ccc([Si](C)(C)[C@H]2[C@H](CC(=O)N3Cc4ccccc4C[C@H]3CO)O[C@@]3(C(=O)N(Cc4cccc(N5C(=O)c6cccc7cccc5c67)c4)c4ccccc43)[C@@H]2C)cc1	-0.173
COc1ccc(CCNC(=O)[C@@]2(Sc3ccc(C)cc3)CC(=O)N(Cc3cc(C(F)(F)F)cc(C(F)(F)F)c3)[C@@H]2c2ccc(CO)cc2)cc1	0.344
CC(C)(C)OC(=O)CC[C@]1(C(=O)N2CCOCC2)N=C(c2ccc(OCCCO)cc2)O[C@H]1c1ccccc1CN=[N+]=[N-]	-0.127

Record summary for CCCCNC(=O)c1ccc(C#C[Si](C)(C)C)c(OC(C)=O)c1 : reported composite z-score = -0.0926

So for C[C@H]1NC(=O)C([C@@H](C)OCc2ccccc2)NC(=O)[C@@]23C(=O)N[C@@H](Cc4ccccc4)C2[C@H](C)[C@@]2(C)O[C@H]2C3/C=C/C/C=C\CNC1=O (some centres undefined) , the logged composite z-score turned out to be -0.192

Recorded composite z-score (molecule CCCCCN1CC=CC23O[C@@H]4C=CCOC(=O)[C@@H]4[C@H]2C(=O)N(CCCCCO)[C@@H]3C1=O (some centres undefined) ): -0.121

GET /value?item= COCCOC(=O)N1C(=O)[C@@]2(c3cc(C#Cc4ccc(OC)cc4)ccc31)[C@H](C(=O)N1CCCCCCC1)[C@H]1C(=O)O[C@H](c3ccccc3)[C@H](c3ccccc3)N1[C@@H]2c1ccccc1OCCO &field=composite z-score returns 1.63

For CCC[C@@H]1C=C(C(=O)OCC)[C@H](c2ccccc2)N1S(=O)(=O)c1ccc(C)cc1 the molecule record lists composite z-score as 0.326

Lab note: COCCCNC(=O)[C@@]1(Sc2ccc(C)cc2)CC(=O)N(C2CCCCC2)[C@@H]1c1ccc(CO)cc1I gave composite z-score of -0.0333

# composite z-score of CCCCC(=C=CC[C@@H](O)c1cccc(OCCO)c1)C[C@@H](O)COCc1ccccc1 = -0.274

// composite z-score lookup, molecule = O=C1OCCC=C[C@H]2OC34C=CCN(c5ccc(Cl)cc5)C(=O)[C@H]3N(CCO)C(=O)[C@@H]4C12 (some centres undefined) , result: -0.121

Memo: Cc1ccc(F)cc1S(=O)(=O)N[C@@H]1CCN(Cc2ccc3c(c2)OCO3)C1 , reported composite z-score: -0.148

----------
# System: XIP peptide (Xip251-270) binding
# experiment description: small-molecule binders of XIP peptide, primary screen, biochemical, small-molecule microarray, fluorescence 635/667 nm, 0.1 µg/mL protein (AID 1182)
# condition: fluorescent protein binding, 635 nm, higher = more signal, called active from +8 up or from −8 down
property measured: composite z-score
Lab note: write the figure by itself, no unit.

A selection of reference data follows.
molecule	study system	property measured	measured number
CCC[C@@H]1[C@@H](Sc2ccccc2)[C@@H](C(=O)O)[C@H](c2ccc(C)cc2)N1S(=O)(=O)c1ccc(C)cc1	XIP peptide (Xip251-270) binding	composite z-score	0.163
[N-]=[N+]=NCc1ccccc1C[C@@]1(C(=O)O)N=C(c2ccc(OCCCO)cc2)O[C@@H]1c1ccccc1CN=[N+]=[N-]	XIP peptide (Xip251-270) binding	composite z-score	0.673

So, COc1ccccc1CN1C(=O)c2ccccc2[C@](Cc2ccccc2I)(C(=O)NCCCN(C)C)[C@@H]1c1ccc(CO)cc1 ? Its composite z-score was 0.287

Lab note: CN(C)CCCC[C@@H]1NC(=O)[C@H]2C[C@@H](C(=O)O)[C@@H](c3cccc(OCCO)c3)N2C1=O gave composite z-score of 0.432

COCCCN1C(=O)[C@@]2(Cc3ccccc31)c1ccccc1C(=O)N(Cc1ccccc1OC)[C@H]2c1ccc(CO)cc1 has a reported composite z-score of -0.184

Lab book: composite z-score of COc1cc(OC)c(C(O)C2C=CC3C(=O)N(c4ccccc4)C(=O)C3N2Nc2ccccc2F)cc1Br (stereo unspecified) noted as 0.166
